Collected Population Healthy Nuclei (%) values appear next to each entry.
System: U2OS
Assay: Multiplex assay against U2OS
Format: toxicity, cell-based
Settings: human, 24 h, 10 µM, compound concentration 10 uM, replicate 1
Form entry: enter the amount, then its unit.

// lookup Population Healthy Nuclei (%) | system=U2OS | key= COC[C@@H](c1ccc(C(F)(F)F)cc1)N1CCN(C2(C)CCN(C(=O)c3c(C)ncnc3C)CC2)C[C@@H]1C.O=C(O)/C=C\C(=O)O [VICRIVIROC MALEATE] 68%

---

Listed compounds paired with reported Population Normal (%)
System: HEK-293T
Experiment: Multiplex assay against HEK293T
Type: toxicity, cell-based
Settings: human, 12 h, 10 µM, compound concentration 10 uM, replicate 1
Please state the figure in %; there is no need to write the unit.

Guide cases for Population Normal (%), answers given:
INSERT INTO results (compound, measure, assay_result) VALUES
  ('CCCCCC(O)/C=C/[C@H]1C(=O)CC(O)C1C/C=C\CCCC(=O)O (some centres undefined)', 'Population Normal (%)', 90),
  ('Cc1onc(-c2ccccc2Cl)c1C(=O)N(C)c1ccc(Cl)cc1', 'Population Normal (%)', 87),
  ('Br.CS(=O)(=O)Nc1c(O)ccc2c1CCCC2C1=NCCN1 (centres undefined)', 'Population Normal (%)', 87),
  ('Cc1c(CC(=O)O)c2cccnc2n1Cc1ccc(S(C)(=O)=O)cc1C(F)(F)F', 'Population Normal (%)', 93),
  ('CC(=O)Nc1cccc2c1c(Sc1ccc(Cl)cc1)c(C)n2CC(=O)O', 'Population Normal (%)', 92),
  ('NCCc1cn(S(=O)(=O)c2c(Cl)nc3sccn23)c2ccccc12.O=C(O)C(=O)O', 'Population Normal (%)', 77),
  ('N#Cc1cc(F)cc(-c2nc(-c3ccc(F)cn3)no2)c1', 'Population Normal (%)', 95),
  ('N#Cc1c(Oc2cccc(OS(=O)(=O)CCCC(F)(F)F)c2)cccc1C(F)(F)F', 'Population Normal (%)', 89);

Moving on to the next compound.
Hello, I am looking for reported Population Normal (%) with HEK-293T for Cl.NCCc1ccc(O)c(O)c1 [DOPAMINE HYDROCHLORIDE] . Could you help? 93

---

Test system: HEK-293T
Assay: Multiplex assay against HEK293T
Assay type: toxicity, cell-based
Conditions: human, 48 h, 10 µM, compound concentration 10 uM, replicate 1
Attribute: Population Membrane Permeable-Phenotype (%)
# answer = value followed by unit

May I ask what Population Membrane Permeable-Phenotype (%) has been recorded for "CC(/C=C1\SC(=S)N(CCCC(=O)Nc2ccc(C(=O)O)c(O)c2)C1=O)=C\c1ccccc1" ? 2%

Would you kindly share the measured Population Membrane Permeable-Phenotype (%) for "CC(C)(C)c1cc(NC(=O)Nc2ccc(-c3cn4c(n3)sc3cc(OCCN5CCOCC5)ccc34)cc2)no1" ? 1%

Suppose we examine the compound "CCCCC(=O)N(Cc1ccc(-c2ccccc2-c2nnn[nH]2)cc1)[C@H](C(=O)O)C(C)C" ; what Population Membrane Permeable-Phenotype (%) value has been reported? 2%

Returns the measured Population Membrane Permeable-Phenotype (%) for the input compound. Input: Cc1sc2c(c1C)C(c1ccc(Cl)cc1)=N[C@@H](CC(=O)NCCCCCCCCNC(=O)COc1cccc3c1C(=O)N(C1CCC(=O)NC1=O)C3=O)c1nnc(C)n1-2 (some centres undefined) 0%
